Measured values drawn from patent US5011833A for this set.

# TEST_NAME: acute oral toxicity (LD-50)
# MEASUREMENT_PARAMETERS: mouse, in vivo, mice, read-out: oral LD-50
MEASUREMENT_TYPE: LD50 at 336 h
# include the unit after the value

Task: # input compound: CN(C)CCCN1c2ccccc2N(C)S(=O)(=O)c2ccccc21 [reference compound] ; wanted: its LD50 at 336 h
Output: 655 mg/kg

Task: Query CN(C)CC(=O)N1c2ccccc2N(C)S(=O)(=O)c2ccccc21 next
Output: 1920 mg/kg

* * *

Would you mind telling me the reported LD50 at 336 h of each entry?
# TEST_NAME: acute oral toxicity (LD-50)
# MEASUREMENT_PARAMETERS: mouse, in vivo, Swiss male mice, after 14 days, read-out: LD-50

Task: Please look up its LD50 at 336 h: CN(C)CCC(=O)N1c2ccccc2N(C)S(=O)(=O)c2ccccc21.Cl
Output: 500 to 700 mg/kg

Task: Another: CN(C)CC(=O)N1c2ccc(Cl)cc2N(C)S(=O)(=O)c2ccccc21
Output: 1000 to 1500 mg/kg

Task: Same again, this time with CNCC(=O)N1c2ccccc2N(C)S(=O)(=O)c2ccccc21
Output: 750 to 1000 mg/kg

Task: Would you mind doing CN(C)CC(=O)N1c2ccccc2N(C)S(=O)(=O)c2ccccc21 as well?
Output: 1500 to 2000 mg/kg

Task: Same question, Cc1ccc2c(c1)N(C(=O)CN(C)C)c1ccccc1S(=O)(=O)N2C this time
Output: 1500 to 2000 mg/kg

Task: What would you report for CCN(CC)CC(=O)N1c2ccccc2N(C)S(=O)(=O)c2ccccc21 ?
Output: > 2000 mg/kg
